- run_description: Pharmacokinetics and renal excretion in healthy subjects
- test_conditions: both sexes, human, in vivo, iv, 1000 mg, VSS
reported_property: Vd (L)
Your answer is read as L, so omit the unit and give the number.

input: Give reported Vd value for CN[C@H]1C(=O)N[C@@H]2Cc3ccc(cc3)Oc3cc4cc(c3O[C@@H]3O[C@H](C(=O)O)[C@@H](O)[C@H](O)[C@H]3NC(=O)CCCCCCCCC(C)C)Oc3ccc(cc3Cl)[C@@H](O)[C@@H]3NC(=O)[C@H](NC(=O)[C@@H]4NC(=O)[C@@H](NC2=O)c2cc(cc(O)c2Cl)Oc2cc1ccc2O)c1ccc(O)c(c1)-c1c(O[C@H]2O[C@H](CO)[C@@H](O)[C@H](O)[C@@H]2O)cc(O)cc1[C@@H](C(=O)NCCCN(C)C)NC3=O [Dalbavancin]
output: 11.5

* * *

- run_description: Pharmacokinetics and renal excretion in healthy subjects
- test_conditions: both sexes, human, in vivo, iv, 1000 mg, VZ
- Description: Blood samples were drawn into heparinized tubes and centrifuged. Plasma was separated and stored frozen at −20° C. until time of assay. Plasma and urine samples were assayed for dalbavancin using validated LC/MS/MS methods. […] The area under the plasma concentration-time curve (AUC) was calculated using the linear trapezoidal rule. […] The cumulative amount of dalbavancin excreted in urine was determined as the integrand of the urine excretion rate (AURC). […]
reported_property: Vd (L)
Your answer is read as L, so omit the unit and give the number.

input: Quickly give me recorded Vd for CN[C@H]1C(=O)N[C@@H]2Cc3ccc(cc3)Oc3cc4cc(c3O[C@@H]3O[C@H](C(=O)O)[C@@H](O)[C@H](O)[C@H]3NC(=O)CCCCCCCCC(C)C)Oc3ccc(cc3Cl)[C@@H](O)[C@@H]3NC(=O)[C@H](NC(=O)[C@@H]4NC(=O)[C@@H](NC2=O)c2cc(cc(O)c2Cl)Oc2cc1ccc2O)c1ccc(O)c(c1)-c1c(O[C@H]2O[C@H](CO)[C@@H](O)[C@H](O)[C@@H]2O)cc(O)cc1[C@@H](C(=O)NCCCN(C)C)NC3=O
output: 16

* * *

- run_description: Pharmacokinetics and renal excretion in healthy subjects
- test_conditions: both sexes, human, in vivo, iv, 1000 mg, healthy subjects, single 1000 mg IV; mean
reported_property: half-life (days)
Report the figure in days without appending any unit label.

input: Answer with reported half-life of CN[C@H]1C(=O)N[C@@H]2Cc3ccc(cc3)Oc3cc4cc(c3O[C@@H]3O[C@H](C(=O)O)[C@@H](O)[C@H](O)[C@H]3NC(=O)CCCCCCCCC(C)C)Oc3ccc(cc3Cl)[C@@H](O)[C@@H]3NC(=O)[C@H](NC(=O)[C@@H]4NC(=O)[C@@H](NC2=O)c2cc(cc(O)c2Cl)Oc2cc1ccc2O)c1ccc(O)c(c1)-c1c(O[C@H]2O[C@H](CO)[C@@H](O)[C@H](O)[C@@H]2O)cc(O)cc1[C@@H](C(=O)NCCCN(C)C)NC3=O [Dalbavancin]
output: 10.7

* * *

- run_description: Pharmacokinetics and renal excretion in healthy subjects
- test_conditions: both sexes, human, in vivo, iv, 1000 mg, Apparent volume of distribution
reported_property: Vd

input: Name the recorded Vd of the item CN[C@H]1C(=O)N[C@@H]2Cc3ccc(cc3)Oc3cc4cc(c3O[C@@H]3O[C@H](C(=O)O)[C@@H](O)[C@H](O)[C@H]3NC(=O)CCCCCCCCC(C)C)Oc3ccc(cc3Cl)[C@@H](O)[C@@H]3NC(=O)[C@H](NC(=O)[C@@H]4NC(=O)[C@@H](NC2=O)c2cc(cc(O)c2Cl)Oc2cc1ccc2O)c1ccc(O)c(c1)-c1c(O[C@H]2O[C@H](CO)[C@@H](O)[C@H](O)[C@@H]2O)cc(O)cc1[C@@H](C(=O)NCCCN(C)C)NC3=O in your answer.
output: > 10 L

* * *

- run_description: Pharmacokinetics and renal excretion in healthy subjects
- test_conditions: both sexes, human, in vivo, iv, 1000 mg, healthy subjects, single 1000 mg IV
reported_property: half-life

input: Return half-life (reported value) for this compound: CN[C@H]1C(=O)N[C@@H]2Cc3ccc(cc3)Oc3cc4cc(c3O[C@@H]3O[C@H](C(=O)O)[C@@H](O)[C@H](O)[C@H]3NC(=O)CCCCCCCCC(C)C)Oc3ccc(cc3Cl)[C@@H](O)[C@@H]3NC(=O)[C@H](NC(=O)[C@@H]4NC(=O)[C@@H](NC2=O)c2cc(cc(O)c2Cl)Oc2cc1ccc2O)c1ccc(O)c(c1)-c1c(O[C@H]2O[C@H](CO)[C@@H](O)[C@H](O)[C@@H]2O)cc(O)cc1[C@@H](C(=O)NCCCN(C)C)NC3=O
output: 9 to 12 days

* * *

- run_description: Pharmacokinetics and renal excretion in healthy subjects
- test_conditions: both sexes, human, in vivo, iv, 1000 mg
reported_property: clearance (mL/min)
Give your result in mL/min as a bare value.

input: Report clearance for CN[C@H]1C(=O)N[C@@H]2Cc3ccc(cc3)Oc3cc4cc(c3O[C@@H]3O[C@H](C(=O)O)[C@@H](O)[C@H](O)[C@H]3NC(=O)CCCCCCCCC(C)C)Oc3ccc(cc3Cl)[C@@H](O)[C@@H]3NC(=O)[C@H](NC(=O)[C@@H]4NC(=O)[C@@H](NC2=O)c2cc(cc(O)c2Cl)Oc2cc1ccc2O)c1ccc(O)c(c1)-c1c(O[C@H]2O[C@H](CO)[C@@H](O)[C@H](O)[C@@H]2O)cc(O)cc1[C@@H](C(=O)NCCCN(C)C)NC3=O
output: 0.718

* * *

- run_description: Pharmacokinetics and renal excretion in healthy subjects
- test_conditions: both sexes, human, in vivo, iv, 1000 mg, CLR
reported_property: CL renal (mL/min)
Hi! Could you send only the number? It should be in mL/min, unit omitted.

input: Please give measured CL renal of the following entry: CN[C@H]1C(=O)N[C@@H]2Cc3ccc(cc3)Oc3cc4cc(c3O[C@@H]3O[C@H](C(=O)O)[C@@H](O)[C@H](O)[C@H]3NC(=O)CCCCCCCCC(C)C)Oc3ccc(cc3Cl)[C@@H](O)[C@@H]3NC(=O)[C@H](NC(=O)[C@@H]4NC(=O)[C@@H](NC2=O)c2cc(cc(O)c2Cl)Oc2cc1ccc2O)c1ccc(O)c(c1)-c1c(O[C@H]2O[C@H](CO)[C@@H](O)[C@H](O)[C@@H]2O)cc(O)cc1[C@@H](C(=O)NCCCN(C)C)NC3=O
output: 0.3
